testTarget: mAb 2 (anti-FSHβ monoclonal antibody)
measurementDescription: Binding of looped peptide mimics of FSH-β to anti-FSH-β monoclonal antibody mAb 2 (Kd)
Positions of bridges follow the written chain, without caps; N, C: chain ends. T2 = dibromobenzene scaffold (1,3-bis(bromomethyl)benzene, m-dibromoxylene) forming thioether links to the two Cys
measurementName: Kd (nM)
Give bare numbers, in nM.

Ask: Specify measured Kd for c-T2-[Ac-CRVPGAAHHADSLC-NH2] (linker 1-14 via T2 (inferred)) [compound 1] .
Result: 2500
